Data credit: patent US20240366809A1

- Tested on: human organs
- method_summary: Absorbed doses of radiation, estimates for human organs (OLINDA software)
- condition_context: human organ: Thyroid
Reported radiation dose estimate, Thyroid by item:
Unit mSv/MBq implied. Number only.

Completed entries (count: 3):
Prompt line: Answer briefly: radiation dose estimate, Thyroid recorded on human organs for O=C([O-])CN1CCN(CC(=O)[O-])CCN(CC(=O)NCC2CCC(C(=O)N[C@@H](Cc3ccc4ccccc4c3)C(=O)NCCCC[C@H](NC(=O)N[C@@H](CCC(=O)O)C(=O)O)C(=O)O)CC2)CCN(CC(=O)[O-])CC1.[68Ga+3] (stereo partly shown) [^68Ga-PSMA-617, reference compound]
Response line: 1.08E−02

Prompt line: Answer briefly: radiation dose estimate, Thyroid recorded on human organs for O=C([O-])CN1CCN(CC(=O)[O-])CCN(CC(=O)N2CCO[C@]3(CC[C@H](C(=O)N[C@@H](Cc4ccc5ccccc5c4)C(=O)NCCCC[C@H](NC(=O)N[C@@H](CCC(=O)O)C(=O)O)C(=O)O)CC3)C2)CCN(CC(=O)[O-])CC1.[68Ga+3] [^68Ga-v]
Response line: 9.11E−04

Prompt line: Answer briefly: radiation dose estimate, Thyroid recorded on human organs for O=C([O-])CN1CCN(CC(=O)[O-])CCN(CC(=O)N2CCO[C@]3(CC[C@H](C(=O)N[C@@H](Cc4ccc5ccccc5c4)C(=O)NCCCC[C@H](NC(=O)N[C@@H](CCC(=O)O)C(=O)O)C(=O)O)CC3)C2)CCN(CC(=O)[O-])CC1.[177Lu+3] [^177Lu-v]
Response line: 2.41E−03

// below: radiation dose estimate, Thyroid requested for another compound
Prompt line: Answer briefly: radiation dose estimate, Thyroid recorded on human organs for O=C([O-])CN1CCN(CC(=O)[O-])CCN(CC(=O)NCC2CCC(C(=O)N[C@@H](Cc3ccc4ccccc4c3)C(=O)NCCCC[C@H](NC(=O)N[C@@H](CCC(=O)O)C(=O)O)C(=O)O)CC2)CCN(CC(=O)[O-])CC1.[177Lu+3] (stereo partly shown) [^177Lu-PSMA-617, reference compound]
Response line: 1.83E−03
